tested on: NCI-H23 lung; assay: NCI tumour cell line growth inhibition, 48 h
VALUE_KIND: TGI

Consider the following illustrative entries.
CCCCCCCCCCCCOC1C(C(CC(=O)N2CCN(Cc3ccc4c(c3)OCO4)CC2)NS(=O)(=O)c2cc(Cl)cc(Cl)c2)OC2OC(C)(C)OC21 (configuration not stated) | > 100 µM
C[C@]12CCC3=NCCN3C1=CC[C@@H]1[C@@H]2CC[C@@]2(C)[C@H]1CC[C@]2(C)O | > 100 µM
Oc1ccc(SCc2cc(O)ccc2O)cc1 | > 100 µM
O=C(Nc1ccc(C(F)(F)F)cc1[N+](=O)[O-])c1cccnc1 | > 100 µM
COC(=O)C(=O)C(C(=O)C(=O)Nc1ccc(C)c(C)c1)c1nc2ccc([N+](=O)[O-])cc2[nH]c1=O (configuration not stated) | > 100 µM
O=C1CCS/C(=N/S(=O)(=O)c2ccc(N3N=C4c5ccccc5CC4C3c3cccs3)cc2)N1Cc1ccccc1 (configuration not stated) | 31.8 µM
CC(=O)NN(c1ccccc1)C1CCN(c2ccccc2)N1C(C)=O (configuration not stated) | > 10 µM
CC(=O)N1c2cc(N=NN(C)C)ccc2NC(=O)CC1C (configuration not stated) | > 100 µM
CC(=O)C(C(C)=O)[C@H]1OC(C)(C)O[C@H]1[C@H]1COC(C)(C)O1 | > 100 µM
COCC1N=C(c2cc(OC)c(OC)c(OC)c2-c2cc3c(cc2[C@H](C)O)OCO3)O[C@H]1c1ccccc1 (some centres not stated) | > 100 µM

// query Please give the documented TGI of `NC(N)=N/N=C(/c1ccccc1)c1ccccc1F`
// result 27.8 µM

// query Please give the documented TGI of `Cc1cc(=O)n2nc(CSc3nnc(Sc4cc(O)ccc4O)s3)sc2n1`
// result > 100 µM
